target: hERG (Homo sapiens)
Construct: purchased Invitrogen PV5365
test.protocol: hERG inhibition test (Predictor hERG Fluorescence Polarization assay kit)
Format: binding
particulars: probe kit Tracer (fluorescent hERG ligand), hERG % inhibition at 10 uM, relative to E-4031 and solvent control
Could you please report measured inhibition at 2.5 h, 10 µM for the items listed next?
Give bare numbers, in %.

Field: example entries. Status: answers known.
O=C(O)c1ccc2nc(Cc3ccc(-c4cccc(OCc5ccc(F)c(F)c5)n4)c(F)c3)n(CC3CCCO3)c2c1 (stereo not shown); -2.76
O=C(O)c1ccc2nc(Cc3ccc(-c4ccc(F)c(OCc5ccc(Cl)cc5F)n4)cc3F)n(CC3CCCO3)c2c1 (stereo not shown); -68.2
O=C(O)c1ccc2nc(Cc3ccc(-c4ccc(F)c(OCc5ccc(Cl)cc5F)c4)c(F)c3)n(CC3CCCO3)c2c1 (stereo not shown); 8.68
N#Cc1ccc(COc2cccc(-c3ccc(Cc4nc5ccc(C(=O)O)cc5n4Cc4ccco4)cc3)n2)c(F)c1; 7.37

Provide inhibition at 2.5 h, 10 µM for all items below, preserving their order.
1. O=C(O)c1ccc2nc(Cc3ccc(-c4cccc(OCc5ccc(Cl)cc5F)n4)cc3F)n(CCF)c2c1
2. COCCn1c(Cc2c(F)cc(-c3cccc(OCc4ccc(Cl)cc4F)n3)cc2F)nc2ccc(C(=O)O)cc21

-2.26
-10.6

The compound listed as `N#Cc1ccc(COc2cccc(-c3cc(F)c(Cc4nc5ccc(C(=O)O)cc5n4C[C@@H]4CCO4)c(F)c3)n2)c(F)c1` shows inhibition at 2.5 h, 10 µM equal to 5.66

* * *

Field: EC50. Provide a value for each of the molecules that follow.
target: human GLP-1 receptor (Homo sapiens, UniProt P43220)
Construct: host or cells: CHO-K1
Sequence (P43220 24-463): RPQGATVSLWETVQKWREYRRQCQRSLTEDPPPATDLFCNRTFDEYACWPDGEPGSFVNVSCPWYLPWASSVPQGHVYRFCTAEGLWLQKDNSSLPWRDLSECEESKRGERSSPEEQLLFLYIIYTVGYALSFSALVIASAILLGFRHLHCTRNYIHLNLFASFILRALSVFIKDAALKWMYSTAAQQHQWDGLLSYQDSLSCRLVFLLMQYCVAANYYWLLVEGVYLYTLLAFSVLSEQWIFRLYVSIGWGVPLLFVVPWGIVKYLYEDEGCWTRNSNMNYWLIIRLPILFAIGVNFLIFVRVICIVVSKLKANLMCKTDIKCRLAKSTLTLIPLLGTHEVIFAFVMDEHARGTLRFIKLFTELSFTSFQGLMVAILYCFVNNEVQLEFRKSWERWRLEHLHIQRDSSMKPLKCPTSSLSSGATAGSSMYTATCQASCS
test.protocol: cAMP activity test (cAMP dynamic HTRF kit) in CHO-K1/GLP-1 receptor-expressing cells
Format: cell-based
particulars: cAMP activity, CHO-K1/GLP-1 receptor-expressing cells; read-out: EC50

O=C(O)c1ccc2nc(Cc3ccc(-c4cccc(OCc5ccc([N+](=O)[O-])cc5)n4)c(F)c3)n(C[C@@H]3CCO3)c2c1; 4.3 nM
O=C(O)c1ccc2nc(Cc3ccc(-c4cccc(OCc5ccc(Cl)cc5F)c4)c(F)c3)n(Cc3cnco3)c2c1; 60 nM
O=C(O)c1ccc2nc(Cc3ccc(-c4ccc(F)c(OCc5ccc(Cl)cc5F)c4)cc3F)n(CC3CCCO3)c2c1 (stereo not shown); 100 nM

Lab note: measured EC50 of N#Cc1ccc(COc2cccc(-c3cc(F)c(Cc4nc5ccc(C(=O)O)cc5n4CC4CCCO4)cc3F)n2)c(F)c1 (stereo not shown) was < 3.2 nM

* * *

target: human GLP-1 receptor (Homo sapiens, UniProt P43220)
Construct: host or cells: CHO-K1
test.protocol: cAMP activity test (cAMP dynamic HTRF kit) in CHO-K1/GLP-1 receptor-expressing cells
Format: cell-based
particulars: cAMP activity, CHO-K1/GLP-1 receptor-expressing cells; read-out: EC50
EC50 strictly less than 70 nM = Met. Otherwise Not met.

COCCn1c(Cc2ccc(-c3cccc(COc4ccc(Cl)cc4F)n3)cc2[N+](=O)[O-])nc2ccc(C(=O)O)cc21; Not met

hey, is EC50 for `O=C(O)c1ccc2nc(Cc3cc(F)c(-c4cccc(OCc5ccc(Cl)cc5F)n4)cc3F)n(C[C@@H]3CCO3)c2c1` lower than 70 nM or not? Met

Please determine if N#Cc1ccc(COc2cccc(-c3ccc(Cc4nc5ccc(C(=O)O)cc5n4CC4CCCO4)c(F)c3)n2)cc1 (stereo not shown) is below 70 nM in terms of EC50. Met

Consider the compound `COc1ccc(COc2cccc(-c3ccc(Cc4nc5ccc(C(=O)O)cc5n4C[C@@H]4CCO4)cc3F)n2)cc1` . Is its EC50 strictly less than 70 nM? Met

Strictly below 70 nM in EC50? `Cc1cc(-c2cccc(OCc3ccc(Cl)cc3F)n2)ccc1Cc1nc2ccc(C(=O)O)cc2n1C[C@@H]1CCO1` Not met

Below 70 nM on EC50? Entry O=C(O)c1ccc2nc(Cn3ccc(-c4cccc(OCc5ccc(Cl)cc5F)c4)cc3=O)n(CC3CCCO3)c2c1 (stereo not shown) Not met

A record lists `O=C(O)c1ccc2nc(Cc3ccc(-c4cccc(OCc5ccc(Cl)cc5F)n4)c(F)c3)n(C[C@@H]3CCCO3)c2c1` . Is its EC50 below 70 nM? Met

* * *

Kindly supply the reported inhibition at 2.5 h, 10 µM values for the records listed here.
target: hERG (Homo sapiens, UniProt Q12809)
Construct: purchased Invitrogen PV5365
Sequence (Q12809 whole entry): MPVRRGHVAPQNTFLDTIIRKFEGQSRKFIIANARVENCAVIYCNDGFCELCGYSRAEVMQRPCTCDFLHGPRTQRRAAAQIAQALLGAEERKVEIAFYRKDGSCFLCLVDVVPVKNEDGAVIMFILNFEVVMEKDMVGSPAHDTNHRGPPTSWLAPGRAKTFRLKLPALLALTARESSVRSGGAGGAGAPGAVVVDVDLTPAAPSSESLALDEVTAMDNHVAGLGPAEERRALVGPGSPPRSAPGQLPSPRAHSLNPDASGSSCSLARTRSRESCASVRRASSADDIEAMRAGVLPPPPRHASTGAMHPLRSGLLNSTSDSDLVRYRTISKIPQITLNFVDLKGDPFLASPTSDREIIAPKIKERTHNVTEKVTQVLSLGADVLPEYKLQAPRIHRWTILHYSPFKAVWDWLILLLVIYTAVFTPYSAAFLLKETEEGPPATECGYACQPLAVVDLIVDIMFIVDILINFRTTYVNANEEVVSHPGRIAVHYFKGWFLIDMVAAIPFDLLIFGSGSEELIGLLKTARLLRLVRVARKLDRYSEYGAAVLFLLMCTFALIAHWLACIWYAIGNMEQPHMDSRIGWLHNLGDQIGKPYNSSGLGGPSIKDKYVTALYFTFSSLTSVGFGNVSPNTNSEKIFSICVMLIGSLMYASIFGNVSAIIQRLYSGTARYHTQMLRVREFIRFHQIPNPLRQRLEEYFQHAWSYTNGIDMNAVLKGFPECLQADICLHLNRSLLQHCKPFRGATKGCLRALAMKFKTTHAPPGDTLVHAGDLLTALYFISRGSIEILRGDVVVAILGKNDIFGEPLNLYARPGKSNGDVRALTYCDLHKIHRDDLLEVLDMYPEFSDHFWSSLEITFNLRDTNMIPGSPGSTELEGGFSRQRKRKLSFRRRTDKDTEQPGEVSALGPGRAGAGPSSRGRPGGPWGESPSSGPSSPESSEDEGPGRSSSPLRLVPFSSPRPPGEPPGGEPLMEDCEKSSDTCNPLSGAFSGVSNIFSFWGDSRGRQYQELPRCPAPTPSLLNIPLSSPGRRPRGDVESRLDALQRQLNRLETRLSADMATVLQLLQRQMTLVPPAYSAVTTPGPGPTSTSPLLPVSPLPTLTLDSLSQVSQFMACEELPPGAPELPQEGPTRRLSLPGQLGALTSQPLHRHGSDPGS
test.protocol: hERG inhibition test (Predictor hERG Fluorescence Polarization assay kit)
Assay type: binding
particulars: probe kit Tracer (fluorescent hERG ligand), hERG % inhibition at 10 uM, relative to E-4031 and solvent control
In your response, put the unit directly after the numeric value.

Before answering, review these 2 worked examples.
O=C(O)c1ccc2nc(Cc3ccc(-c4cccc(OCc5ccc(Cl)cc5)n4)c(F)c3)n(C[C@@H]3CCO3)c2c1 [Example 123]; -0.45%
O=C(O)c1ccc2nc(Cc3ccc(-c4cccc(OCc5ccc(Cl)cc5F)n4)c(F)c3)n(CC3CCCO3)c2c1 (stereo not shown) [Example 11]; -1.31%

Give me inhibition at 2.5 h, 10 µM for each of these compounds, listed below.
1. Cc1cccc(COc2cccc(-c3ccc(Cc4nc5ccc(C(=O)O)cc5n4CC4CCCO4)c(F)c3)n2)c1 (stereo not shown) [Example 80]
2. CCn1cncc1Cn1c(Cc2ccc(-c3cccc(OCc4ccc(Cl)cc4F)n3)cc2F)nc2ccc(C(=O)O)cc21 [Example 72]
3. COCCn1c(Cc2ccc(-c3cccc(OCc4ccc(Cl)cc4F)c3)cc2F)nc2ccc(C(=O)O)cc21 [Example 36]
4. N#Cc1ccc(COc2cccc(-c3ccc(Cc4nc5ccc(C(=O)O)cc5n4Cc4ccco4)cc3)c2)c(F)c1 [Example 27]
5. COCCn1c(Cc2ccc(-c3cccc(OCc4ccc(C#N)cc4F)c3)cc2F)nc2ccc(C(=O)O)cc21 [Example 26]

1. -25.2%
2. -5.75%
3. -10.8%
4. -4.76%
5. 2.43%

* * *

target: human GLP-1 receptor (Homo sapiens, UniProt P43220)
Construct: host or cells: CHO-K1
test.protocol: cAMP activity test (cAMP dynamic HTRF kit) in CHO-K1/GLP-1 receptor-expressing cells
Format: cell-based
particulars: cAMP activity, CHO-K1/GLP-1 receptor-expressing cells; read-out: EC50
Lab note: compare EC50 with 30 nM, writing 1 if less and -1 if equal or more.

Determine if COCCn1c(Cc2ccc(-c3cccc(OCc4ccc(Cl)cc4F)c3)cc2)nc2ccc(C(=O)O)cc21 [Example 22] shows EC50 strictly lower than 30 nM. -1

# check: EC50 < 30 nM for O=C(O)c1ccc2nc(Cc3ccc(-c4cccc(OCc5ccc(Cl)cc5F)n4)c(F)c3)n(Cc3cccs3)c2c1 [Example 50] 1

is_below(EC50, 30 nM) for O=C(O)c1ccc2nc(Cn3cc(-c4cccc(OCc5ccc(Cl)cc5F)n4)cn3)n(C[C@@H]3CCO3)c2c1 [Example 131] ? -1

* * *

target: human GLP-1 receptor (Homo sapiens)
Construct: host or cells: CHO-K1
test.protocol: cAMP activity test (cAMP dynamic HTRF kit) in CHO-K1/GLP-1 receptor-expressing cells
Type: cell-based
particulars: cAMP activity, CHO-K1/GLP-1 receptor-expressing cells; read-out: EC50
observation.type: pEC50
Give bare numbers, as −log10 of the molar value.

Known pEC50 results, listed for orientation:
Cc1cc(Cc2nc3ccc(C(=O)O)cc3n2Cc2ccco2)ccc1-c1cccc(OCc2ccc(C#N)cc2F)c1 [Example 29]; 6.05
N#Cc1ccc(COc2cccc(-c3ccc(Cc4nc5ccc(C(=O)O)cc5n4C[C@H]4CCCO4)c(F)c3)c2)c(F)c1 [Example 46]; 6.59
O=C(O)c1ccc2nc(Cn3ccc(-c4cccc(OCc5ccc(Cl)cc5F)n4)cc3=O)n(C[C@@H]3CCCO3)c2c1 [Example 108]; 6.89
N#Cc1ccc(COc2cccc(-c3ccc(Cc4nc5ccc(C(=O)O)cc5n4C[C@@H]4CCCO4)c(F)c3)n2)c(F)c1 [Example 66]; 8.34
Cc1cc(-c2cccc(OCc3ccc(C#N)cc3F)n2)ccc1Cc1nc2ccc(C(=O)O)cc2n1C[C@@H]1CCO1 [Example 133]; 7.85
O=C(O)c1ccc2nc(Cc3ccc(-c4cccc(OCc5ccc([N+](=O)[O-])cc5)n4)cc3F)n(CC3CCCO3)c2c1 (stereo not shown) [Example 88]; 7.80

The value of pEC50 measured for the molecule O=C(O)c1ccc2nc(Cc3ccc(-c4cccc(OCc5ccc(Cl)cc5F)n4)c(F)c3F)n(CC3CCCO3)c2c1 (stereo not shown) [Example 61] turned out to be 8.06

* * *

target: human GLP-1 receptor (Homo sapiens)
Construct: host or cells: CHO-K1
test.protocol: cAMP activity test (cAMP dynamic HTRF kit) in CHO-K1/GLP-1 receptor-expressing cells
Format: cell-based
particulars: cAMP activity, CHO-K1/GLP-1 receptor-expressing cells; read-out: EC50
pEC50: −log10 of the molar value.
Returns one of Condition met or Condition not met; Condition met when pEC50 is >= 7.

O=C(O)c1ccc2nc(Cc3ccc(-c4ccc(F)c(OCc5ccc(Cl)cc5F)c4)cn3)n(CC3CCCO3)c2c1 (stereo not drawn); Condition not met
O=C(O)c1ccc2nc(Cc3cc(F)c(-c4cccc(OCc5ccc(Cl)cc5F)n4)cc3F)n(C[C@@H]3CCCO3)c2c1; Condition met
N#Cc1ccc(COc2cc(-c3ccc(Cc4nc5ccc(C(=O)O)cc5n4CC4CCCO4)c(F)c3)ccc2F)c(F)c1 (stereo not drawn); Condition not met
N#Cc1ccc(COc2cccc(-c3ccc(Cc4nc5ccc(C(=O)O)cc5n4C[C@H]4CCCO4)cc3F)c2)c(F)c1; Condition not met

API: above_or_equal(metric=pEC50, cutoff=7) for item O=C(O)c1ccc2nc(Cc3ccc(-c4cccc(OCc5cc(F)cc(Cl)c5)n4)c(F)c3)n(CC3CCCO3)c2c1 (stereo not drawn) Condition not met

Does the reported pEC50 for `O=C(O)c1ccc2nc(Cc3ccc(-c4cccc(OCc5ccc(F)cc5F)n4)c(F)c3)n(C[C@@H]3CCO3)c2c1` fall at or above the 7 mark? Condition met

In plain terms: is recorded pEC50 at least 7 for `N#Cc1ccc(COc2cccc(-c3ccc(Cc4nc5ccc(C(=O)O)cc5n4CCF)cc3F)n2)c(F)c1` ? Condition not met

Quick check, pEC50 >= 7? Cc1cc(-c2cccc(OCc3ccc(C#N)cc3F)n2)ccc1Cc1nc2ccc(C(=O)O)cc2n1CC1CCCO1 (stereo not drawn) Condition met
